The reported measurements were obtained from the supplement of paper PMC11208160.

Here, each record is paired with measured recombinant UMI read abundance (log10) data.
# methodNotes: recombinant UMI read abundance after kanamycin selection (control-corrected) (log10(CPM+1)); higher = more efficient recombination; extreme values may be limits of the assay; sequences stand for … in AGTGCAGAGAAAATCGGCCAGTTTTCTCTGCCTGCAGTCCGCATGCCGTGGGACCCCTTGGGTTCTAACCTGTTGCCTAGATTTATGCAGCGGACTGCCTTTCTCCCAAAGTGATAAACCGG…AGGTTGGTTTCACT; site = the 11-nt donor

| orderedResidues | recombinant UMI read abundance (log10) |
| --- | --- |
| GTATTCACATGGACCGGTTTTCCCGGTAATCCGTATTTGTA (site GTATCCACTTA) | 0.507 |
| CGTTCCCCATGGACCGGTTTTCCCGGTAATCCGTATTTGTG (site CGTTCCCCTCA) | 0.365 |
| GGAGTGGCATGGACCGGTTTTCCCGGTAATCCGTATTTGGT (site GGAGTGGCTAT) | 0.592 |
| CGGGAACCATGGACCGGTTTTCCCGGTAATCCGTATTTGAT (site CGGGTACCTAT) | 0 |
| CGCTCAGCATGGACCGGTTTTCCCGGTAATCCGTATTTGGG (site AGCTCAGCTCC) | 0 |

---

Here, each record is paired with measured recombinant barcode read abundance (log10) data.
# methodNotes: recombinant barcode read abundance after kanamycin selection (control-corrected) (log10(CPM+1)); higher = more efficient recombination; sequences stand for … in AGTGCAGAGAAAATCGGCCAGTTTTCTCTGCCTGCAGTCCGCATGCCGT…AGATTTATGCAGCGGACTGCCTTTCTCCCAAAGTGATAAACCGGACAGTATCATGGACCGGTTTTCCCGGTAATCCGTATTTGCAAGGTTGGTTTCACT; site = the 11-nt target
propertyLabel: recombinant barcode read abundance (log10)

| orderedResidues | observedValue |
| --- | --- |
| TCTTGTCCTTGGGTTCTAACCTGTTGCGG (site TCTTGTCCTAC) | 0.0164 |
| CTACAGACTTGGGTTCTAACCTGTTGCGC (site CTACAGACTGC) | 1.21 |
| TGGCCAACTTGGGTTCTAACCTGTTGCGT (site TAGTCAACTAC) | 0.434 |
| GGACCTCCTTGGGTTCTAACCTGTTGCAT (site GGACCTCCTAT) | 1.96 |
| GCACAGACTTGGGTTCTAACCTGTTGCCT (site GCAAAGCCTAG) | 0.207 |

---

# methodNotes: recombinant barcode read abundance after kanamycin selection (control-corrected) (log10(CPM+1)); higher = more efficient recombination; sequences stand for … in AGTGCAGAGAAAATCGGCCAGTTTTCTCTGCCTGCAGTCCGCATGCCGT…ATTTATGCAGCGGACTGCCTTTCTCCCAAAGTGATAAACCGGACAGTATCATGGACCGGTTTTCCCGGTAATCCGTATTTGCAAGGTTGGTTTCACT; site = the 11-nt target
Response key: 1.0 means recombinant barcode read abundance (log10) >= 0.3; 0.0 means recombinant barcode read abundance (log10) < 0.3.

| orderedResidues | labelValue |
| --- | --- |
| TTATAAACTTGGGTTCTAACCTGTTGCCTTG [TTATAAACTAG_LTGcore_CT_RTGcore_CA] (site TTATAAACTAG) (LTG core: CT, RTG core: CA) | 0.0 |
| GAGCCCACGTGGGTTCTAACCTGTTGCCTCG [GAGCCCACTAG_LTGcore_CG_RTGcore_CG] (site GAGCCCACTAG) (LTG core: CG, RTG core: CG) | 0.0 |
| GTCGCCCCTTGGGTTCTAACCTGTTGCTAAA [GTCGCCCCTTA_LTGcore_CT_RTGcore_TT] (site GTCGCCCCTTA) (LTG core: CT, RTG core: TT) | 0.0 |
| CATATTAGTTGGGTTCTAACCTGTTGCCTAC [CATATTACTAG_LTGcore_GT_RTGcore_GT] (site CATATTACTAG) (LTG core: GT, RTG core: GT) | 0.0 |
| GTCGCCCCTTGGGTTCTAACCTGTTGCTACC [GTCGCCCCTTA_LTGcore_CT_RTGcore_GG] (site GTCGCCCCTTA) (LTG core: CT, RTG core: GG) | 1.0 |
| GAGTCCTCTTGGGTTCTAACCTGTTGCCTCT [GAGTCCTCTAG_LTGcore_CT_RTGcore_AG] (site GAGTCCTCTAG) (LTG core: CT, RTG core: AG) | 1.0 |
| TCGCGACGGTGGGTTCTAACCTGTTGCCGCC [TCGCGACCTCG_LTGcore_GG_RTGcore_GG] (site TCGCGACCTCG) (LTG core: GG, RTG core: GG) | 0.0 |
| TAGAGGGCTTGGGTTCTAACCTGTTGCGGTA [TAGAGGGCTCC_LTGcore_CT_RTGcore_TA] (site TAGAGGGCTCC) (LTG core: CT, RTG core: TA) | 0.0 |
| AAACAGTCCTGGGTTCTAACCTGTTGCCTAG [AAACAGTCTAG_LTGcore_CC_RTGcore_CT] (site AAACAGTCTAG) (LTG core: CC, RTG core: CT) | 1.0 |
| GGGCGTGAATGGGTTCTAACCTGTTGCCTTT [GGGCGTGCTAG_LTGcore_AA_RTGcore_AA] (site GGGCGTGCTAG) (LTG core: AA, RTG core: AA) | 0.0 |
| CGGTCCCGATGGGTTCTAACCTGTTGCCAAG [CGGTCCCCTTG_LTGcore_GA_RTGcore_CT] (site CGGTCCCCTTG) (LTG core: GA, RTG core: CT) | 0.0 |

---

# methodNotes: recombinant UMI read abundance after kanamycin selection (control-corrected) (log10(CPM+1)); higher = more efficient recombination; extreme values may be limits of the assay; sequences stand for … in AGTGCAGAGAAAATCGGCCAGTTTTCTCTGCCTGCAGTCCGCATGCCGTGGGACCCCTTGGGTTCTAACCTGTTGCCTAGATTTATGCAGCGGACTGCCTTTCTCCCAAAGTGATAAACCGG…AGGTTGGTTTCACT; site = the 11-nt donor

| orderedResidues | recombinant UMI read abundance (log10) |
| --- | --- |
| TAATCAGCATGGACCGGTTTTCCCGGTAATCCGTATTTGGG (site TAATAAGCTCC) | 0.00976 |
| ACAGGACCATGGACCGGTTTTCCCGGTAATCCGTATTTGCA (site ACAGTATCTTG) | 1.52 |
| ATATGATCATGGACCGGTTTTCCCGGTAATCCGTATTTGGG (site ATATGATCTCC) | 1.26 |
| GCGTTTACATGGACCGGTTTTCCCGGTAATCCGTATTTGCT (site ACGTTTACTAG) | 1.3 |
| TAATGAGCATGGACCGGTTTTCCCGGTAATCCGTATTTGGT (site TAATGAGCTTC) | 0.0263 |
| TAGGAACCATGGACCGGTTTTCCCGGTAATCCGTATTTGCG (site TAGGAAGCTCG) | 0.00966 |
| CACGGCCCATGGACCGGTTTTCCCGGTAATCCGTATTTGTT (site CACCGCCCTAA) | 0.0224 |
| CGTTCGTCATGGACCGGTTTTCCCGGTAATCCGTATTTGCT (site CGATCATCTAG) | 0 |
| CTAGTATCATGGACCGGTTTTCCCGGTAATCCGTATTTGCA (site CTAGTATCTGT) | 0.00642 |

---

# methodNotes: recombinant UMI read abundance after kanamycin selection (control-corrected) (log10(CPM+1)); higher = more efficient recombination; extreme values may be limits of the assay; sequences stand for … in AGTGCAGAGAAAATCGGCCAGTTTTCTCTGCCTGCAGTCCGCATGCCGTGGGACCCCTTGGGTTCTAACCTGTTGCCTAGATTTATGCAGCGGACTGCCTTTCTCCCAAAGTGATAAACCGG…AGGTTGGTTTCACT; site = the 11-nt donor
# label = Met if recombinant UMI read abundance (log10) >= 0.02 else Not met

| orderedResidues | labelValue |
| --- | --- |
| CAAATCACATGGACCGGTTTTCCCGGTAATCCGTATTTGGG (site CAAATCACTCC) | Met |
| CGCCGTCCATGGACCGGTTTTCCCGGTAATCCGTATTTGCT (site CGCCGTACTAG) | Not met |
| CAATTCCCATGGACCGGTTTTCCCGGTAATCCGTATTTGCT (site CAATTCCCTAG) | Met |
| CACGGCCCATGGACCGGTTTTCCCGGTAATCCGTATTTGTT (site CTCGGCCCTAA) | Not met |
| AGTAGATCATGGACCGGTTTTCCCGGTAATCCGTATTTGGA (site AGTAGATCTTC) | Met |

---

# methodNotes: recombinant barcode read abundance after kanamycin selection (control-corrected) (log10(CPM+1)); higher = more efficient recombination; sequences stand for … in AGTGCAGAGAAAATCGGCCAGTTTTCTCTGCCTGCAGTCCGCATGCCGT…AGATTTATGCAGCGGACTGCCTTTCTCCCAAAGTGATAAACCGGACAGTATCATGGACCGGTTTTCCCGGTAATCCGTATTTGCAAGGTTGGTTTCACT; site = the 11-nt target
Some sequences, each annotated with its measured recombinant barcode read abundance (log10).
propertyLabel: recombinant barcode read abundance (log10)

| orderedResidues | observedValue |
| --- | --- |
| GAGGCTCCTTGGGTTCTAACCTGTTGCCT (site GAGGCTCCTGG) | 0.137 |
| CTACAATCTTGGGTTCTAACCTGTTGCCT (site ATACAATCTAG) | 0.0309 |
| CGCTGGACTTGGGTTCTAACCTGTTGCCT (site CGCTCGACTAG) | 0.0114 |
| TCCGTTACTTGGGTTCTAACCTGTTGCCG (site TCCGTTACTCG) | 0.336 |
| TGGTGTACTTGGGTTCTAACCTGTTGCCT (site TGGAGTACTAG) | 0.0346 |
| TCACGTGCTTGGGTTCTAACCTGTTGCCT (site TCACCTGCTAG) | 0.105 |
| AAAGCTACTTGGGTTCTAACCTGTTGCCT (site AAAGCTACTAG) | 1.11 |
| TAGAAGGCTTGGGTTCTAACCTGTTGCTT (site TAGAAGGCTAC) | 0.0392 |
| CGGCACACTTGGGTTCTAACCTGTTGCGG (site CGGGACACTCC) | 0.143 |
| GGGAACCCTTGGGTTCTAACCTGTTGCTA (site GGGAACCCTTA) | 1.29 |
| GCCACGCCTTGGGTTCTAACCTGTTGCAG (site GCCCCGCCTCT) | 0.0522 |
| CGGAAGTCTTGGGTTCTAACCTGTTGCCT (site CGGAAGTCTAG) | 1.7 |
| TATTGGACTTGGGTTCTAACCTGTTGCAC (site TATTGGACTGT) | 0.0567 |
| ATTTCGACTTGGGTTCTAACCTGTTGCCT (site ACTTCGACTAG) | 0.044 |
| AACTATCCTTGGGTTCTAACCTGTTGCAT (site AACTCTCCTAT) | 0.109 |
| ACTAGTCCTTGGGTTCTAACCTGTTGCCT (site ACTAGTCCTAG) | 0.337 |
| GGACCCTCTTGGGTTCTAACCTGTTGCCT (site GGACCCTCTAG) | 1.96 |
| CGAGATTCTTGGGTTCTAACCTGTTGCCT (site CAAGATTCTAG) | 0.331 |
| CTATGAACTTGGGTTCTAACCTGTTGCCA (site GACATTCCTAA) | 0.0769 |
| ACCGCGACTTGGGTTCTAACCTGTTGCCT (site ACCGCGACTAG) | 0.0908 |
| AAGATAGCTTGGGTTCTAACCTGTTGCCT (site AAGAAAGCTAG) | 0.192 |
